- Test system: MM.1S cells
- Assay Info: Proliferation inhibition (IC50) in MM.1S cells, cell viability assay
- Applied Conditions: Homo sapiens, MM1.S, 72 h, read-out: IC50 (nM), proliferation inhibitory activity of MM.1S cells (half inhibitory concentration)
In this section, each of the molecules is paired with its reported IC50.

Molecule	IC50 (nM)
CCN(CC)CCCCCCCCCCSc1cccc2c1CN(C1CCC(=O)NC1=O)C2=O (centres unmarked)	0.49
CN1CCN(CCc2ccc(CSc3cccc4c3CN(C3CCC(=O)NC3=O)C4=O)cc2)CC1 (centres unmarked)	0.311
CN(CCCCCCCSc1cccc2c1C(=O)N(C1CCC(=O)NC1=O)C2=O)C12CC3CC(CC(C3)C1)C2 (centres unmarked)	0.21
O=C1CCC(N2Cc3c(SCc4ccc(CNC5CC6(CCC6)C5)cc4)cccc3C2=O)C(=O)N1 (centres unmarked)	0.05
O=C1CCC(N2Cc3c(SCCCCCCCNC4CC4)cccc3C2=O)C(=O)N1 (centres unmarked)	0.181
CC[N+](CC)(CC)CCCCCCCCSc1cccc2c1CN(C1CCC(=O)NC1=O)C2=O (centres unmarked)	8.2
O=C1CCC(N2Cc3c(SCCCCCCCCC[S+]([O-])CCCC(F)(F)C(F)(F)F)cccc3C2=O)C(=O)N1 (centres unmarked)	4.73
O=C1CCC(N2Cc3c(SCCCCCCCCCN4CCOCC4)cccc3C2=O)C(=O)N1 (centres unmarked)	0.49
O=C1CCC(N2C(=O)c3cccc(SCCc4ccc(CNC56CC7CC(CC(C7)C5)C6)cc4)c3C2=O)C(=O)N1 (centres unmarked)	3.41
O=C1CCC(N2Cc3c(SCCCCCCCNCC4CCCCC4)cccc3C2=O)C(=O)N1 (centres unmarked)	0.062
O=C1CCC(N2Cc3c(SCCc4ccc(CCN5CCCCC5)cc4)cccc3C2=O)C(=O)N1 (centres unmarked)	0.19
O=C1CCC(N2Cc3c(SCc4nc(CNCC5CCCCC5)cs4)cccc3C2=O)C(=O)N1 (centres unmarked)	0.61
O=C1CCC(N2C(=O)c3cccc(SCCCc4ccc(CN5CCCCC5)cc4)c3C2=O)C(=O)N1 (centres unmarked)	2.49
O=C1CCC(N2C(=O)c3cccc(SCCCCCNC45CC6CC(CC(C6)C4)C5)c3C2=O)C(=O)N1 (centres unmarked)	0.409
Cc1ccc(NC(=O)NCCCCCCCSc2cccc3c2CN(C2CCC(=O)NC2=O)C3=O)cc1Cl (centres unmarked)	0.901
CCN(CC)CCCCCCCCSc1cccc2c1CN(C1CCC(=O)NC1=O)C2=O (centres unmarked)	0.19
O=C1CCC(N2Cc3c(SCc4ccc(CCN5CCOCC5)cc4)cccc3C2=O)C(=O)N1 (centres unmarked)	0.1
CC(NCCCCCCSc1cccc2c1CN(C1CCC(=O)NC1=O)C2=O)C12CC3CC(CC(C3)C1)C2 (centres unmarked)	0.131
O=C1CCC(N2Cc3c(SCCCCCN4CCC5(CCCCC5)CC4)cccc3C2=O)C(=O)N1 (centres unmarked)	0.051
CN(CCCCCCCSc1cccc2c1CN(C1CCC(=O)NC1=O)C2=O)C1CC1 (centres unmarked)	0.25
O=C1CCC(N2Cc3c(SCCCCCCCCNC45CC6CC(CC(C6)C4)C5)cccc3C2=O)C(=O)N1 (centres unmarked)	0.12
O=C1CCC(N2Cc3c(SCc4ccc(CN5CCOCC5)cc4F)cccc3C2=O)C(=O)N1 (centres unmarked)	0.113
O=C1CCC(N2Cc3c(SCCCCCCCN[C@H]4CN5CCC4CC5)cccc3C2=O)C(=O)N1 (some centres unmarked)	14

Reference for the values: patent US12582641B2
